This collection of values is drawn from the RNAGym collection of RNA variant scans (doi:10.7554/elife.80360).

B1: HDV Ribozyme (parent)
chain: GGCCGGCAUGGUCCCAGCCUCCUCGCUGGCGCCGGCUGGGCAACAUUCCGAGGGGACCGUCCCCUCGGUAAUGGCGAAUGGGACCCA

# Variants of: B1
# test-method-notes: self-cleavage, relative activity (ratio to wild type); higher = more cleavage; co-transcriptional
measured-property: self-cleavage
Please give only the number in your answer, with no unit.

Give the measured self-cleavage of U23G C58A .
0.877

Which self-cleavage value is on record for U37C G53A ?
1.04

What does the record list as self-cleavage for C14U C21G ?
0.125

Recorded self-cleavage of G1C U46G , please.
0.119

For G55U A56U , what is its reported self-cleavage?
0.797

What value of self-cleavage has been recorded for this entry: C13G C36G
0.158

I'd like to know its self-cleavage. The variant in question is A42G G52U
0.501

Can you look up the measured self-cleavage of U27G C58U for me?
0.906

Param item = C63G A78U ; retrieve measured self-cleavage.
0.185

Fill in: self-cleavage of C63U C84G is ___
0.63

For U12A G80A , what is its reported self-cleavage?
0.108

Form field: reported self-cleavage of C61A A78G
0.678

Please report the recorded self-cleavage for C15U G67C .
0.883

Any idea what its self-cleavage is? The variant is G2U U65G
0.0782

Returns the measured self-cleavage for the input variant. Input: G29A C61G
0.107

Which self-cleavage reading was recorded for the variant U27A C86U ?
0.966

Request the reported self-cleavage associated with G74U C86G
0.485

Dear colleague, I am looking for the recorded self-cleavage of the following variant: G1A C3G
0.227

Bench note: what self-cleavage did C66U G74A show?
0.451

So what's the measured self-cleavage for this one? C21A A43U
0.0944

Request the reported self-cleavage associated with C4G C24U
0.193

// self-cleavage lookup, key: C30A U60A
0.692

// returns reported self-cleavage for input C14U U46A
0.554

Consider the variant shown here: C3A C22U What is its recorded self-cleavage?
0.15

Please report the recorded self-cleavage for G28C G34A .
0.146

Using the record for G50C A83C , report its self-cleavage.
0.317

Look up self-cleavage: C15G A87C
0.799

# input variant: G50U U65C ; wanted: its self-cleavage
0.791

Find the recorded self-cleavage belonging to G50A G52U and report it.
0.688

self-cleavage for G10U G28C ?
0.0941

Name the recorded self-cleavage for G10A U27A .
0.587

Recorded self-cleavage of C21A A78U , please.
0.0573

Item under review: U12C A51G . Reported self-cleavage?
0.369

// self-cleavage lookup, key: G17C C75U
0

Look up self-cleavage for this variant: C21G C41G
0.095

Please look up its self-cleavage: A16G C61U
1.26

# input variant: C7G G10C ; wanted: its self-cleavage
0.222

# query: self-cleavage of entry G25U G31A
0.157

What measured self-cleavage goes with C18U G40C ?
0.281

Returns the measured self-cleavage for the input variant. Input: G2U G81U
0.0198
